- study_system: Pantothenate synthetase (Mycobacterium tuberculosis (strain ATCC 25618 / H37Rv)) (UniProt P9WIL5)
- Sequence (P9WIL5 whole entry, looked up): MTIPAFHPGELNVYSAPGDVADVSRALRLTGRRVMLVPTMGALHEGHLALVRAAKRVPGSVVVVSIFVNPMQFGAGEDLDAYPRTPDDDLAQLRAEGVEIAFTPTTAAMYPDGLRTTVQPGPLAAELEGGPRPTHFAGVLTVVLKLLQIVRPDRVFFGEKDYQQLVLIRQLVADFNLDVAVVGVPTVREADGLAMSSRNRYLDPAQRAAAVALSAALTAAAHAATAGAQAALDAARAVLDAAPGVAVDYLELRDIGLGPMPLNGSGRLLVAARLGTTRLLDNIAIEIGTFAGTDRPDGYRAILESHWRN
- test_name: Coupled enzyme confirmation of inhibitors against recombinant Mtb PanC (AID 375);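 further: 0% = full reaction with vehicle and 100% = no enzyme background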
- study_conditions: coupled enzyme assay; at 10 µM, active compounds read high
Kindly supply the reported inhibition values for the records listed here.
Answers are plain numbers, in %.

COC(=O)c1ccccc1NC1c2ccccc2C(=O)N1c1cccnc1 (stereo not drawn) : 0
CCOC(=O)c1ccc(NC(=O)Cn2cc3c(n2)CCC(C)C3)cc1 (stereo not drawn) : 8
Cc1[nH]n2c(=O)cc(Cc3ccccc3)nc2c1C#N : 0
COC(=O)c1nc2n(n1)C(c1ccc(OC)c(OC)c1)C(C(=O)OC1CCCCC1)=C(C)N2 (stereo not drawn) : 0
CCCSc1nnc(N2C(=O)CC(c3ccsc3)C3=C2CCCC3=O)s1 (stereo not drawn) : 0

Batch request: inhibition for each of the following compounds.
1. N#Cc1ccc(COC(=O)Cn2nnc(-c3ccccc3)n2)cc1
2. CSC1=C(C#N)C(c2ccc(Cl)cc2)C2=C(CC(C)(C)CC2=O)N1 (stereo not drawn)
3. CCOC(=O)c1ccc(COC(=O)c2cc3ccccc3oc2=O)o1
4. COc1ccc(CC(=O)Nc2c3c(nn2-c2cccc(Cl)c2)CS(=O)(=O)C3)cc1
5. Cc1cccc2cc(C#N)c(SCCN3CCCCC3)nc12
6. COc1cc(OC)c(C2C(C#N)=C(N)OC3=C2C(=O)CC(C)(C)C3)cc1OC (stereo not drawn)

## Output
0
2
0
0
0
1

====

Kindly supply the reported inhibition values for the records listed here.
- study_system: Pantothenate synthetase (Mycobacterium tuberculosis (strain ATCC 25618 / H37Rv))
- test_name: Coupled enzyme confirmation of inhibitors against recombinant Mtb PanC (AID 375);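 further: 0% = full reaction with vehicle and 100% = no enzyme background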
- study_conditions: coupled enzyme assay; at 10 µM, active compounds read high
Numbers only, in %.

Here is how some compounds turned out for inhibition.
CCCc1nc(N2CCOCC2)c(C#N)c2c1CCCC2 : 4
CCc1nnc(NC(=O)CSc2nnc(-c3ccccc3OC)n2-c2ccccc2)s1 : 4
CCCCCCn1c(SCCCC)nc2c1c(=O)[nH]c(=O)n2C : 4

Batch request: inhibition for each of the following compounds.
1. C=C(C)COc1ccc(-c2nc(N)ncc2Oc2ccccc2OCC)c(O)c1
2. Cc1cccc(NC(=O)c2cnc3sccn3c2=O)n1
3. CCOC(=O)c1ccc(NC2OC(=O)c3ccccc32)cc1 (stereo not given)
4. CCN(CC)S(=O)(=O)c1ccc2c(c1)c(=O)c(C(=O)NCCOC)cn2C
5. CCC(C)NC(=O)C1(C)CCC(=O)N1Cc1ccccc1OC (stereo not given)
6. Cc1ccc(C)c(N2CCN(C(=O)C3CCN(S(=O)(=O)c4c(C)noc4C)CC3)CC2)c1

## Output
[1, 4, 4, 1, 10, 4]

Batch request: inhibition for each of the following compounds.
1. N#Cc1ccc(CSc2nnc(-c3cnccn3)o2)cc1
2. CC1=Nn2c(nnc2-c2ccccc2)SC1
3. CCOC(=O)N1CCN(C(=O)c2c(-c3ccccc3)noc2C)CC1
4. CCCCS(=O)(=O)NC1=NCN(C2CCN(Cc3ccccc3)CC2)CN1
5. C[N+]1(C)[C@@H]2CC(OC(=O)[C@H](CO)c3ccccc3)C[C@H]1[C@@H]1O[C@@H]12 (stereo not given in full)
6. O=C(CCCC(=O)N(CC(=O)NC1CCCCC1)Cc1ccc2c(c1)OCO2)Nc1ccccn1

## Output
1. 5
2. 0
3. 0
4. 5
5. 0
6. 2

Every entry's value here was drawn from PubChem BioAssay.
